- Study system: T1, short isoform of VEGF (8-109) (UniProt P15692 214-315)
- T1 construct: range 8-109; Immobilized by amine coupling for SPR; in solution for the fluorescence assay; also called vascular endothelial growth factor
- T1 sequence (looked up): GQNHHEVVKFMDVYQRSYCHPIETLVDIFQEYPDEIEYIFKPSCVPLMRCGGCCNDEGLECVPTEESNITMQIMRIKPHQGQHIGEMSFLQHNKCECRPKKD
- Method description: fluorescence-based association assay in solution, 25 mM Tris pH 7.2, 37 C
Readout name: kon (M⁻¹ s⁻¹)
Field format: number, assumed M⁻¹ s⁻¹, no unit text.

Below are worked cases with known answers.
IN: Given Fab Y0101 variant, heavy chain Y99R (Fab, name in Kabat numbering, V domains shown, Fab of Y0101 with one heavy chain substitution) VH: EVQLVESGGGLVQPGGSLRLSCAASGYTFTNYGMNWVRQAPGKGLEWVGWINTYTGEPTYAADFKRRFTFSLDTSKSTAYLQMNSLRAEDTAVYYCAKYPHYRGSSHWYFDVWGQGTLVTVSS VL: DIQLTQSPSSLSASVGDRVTITCSASQDISNYLNWYQQKPGKAPKVLIYFTSSLHSGVPSRFSGSGSGTDFTLTISSLQPEDFATYYCQQYSTVPWTFGQGTKVEIKR , respond with its kon.
OUT: 600000

IN: Given Fab Y0101 variant, heavy chain S100aR (Fab, name in Kabat numbering, V domains shown, Fab of Y0101 with one heavy chain substitution) VH: EVQLVESGGGLVQPGGSLRLSCAASGYTFTNYGMNWVRQAPGKGLEWVGWINTYTGEPTYAADFKRRFTFSLDTSKSTAYLQMNSLRAEDTAVYYCAKYPHYYGRSHWYFDVWGQGTLVTVSS VL: DIQLTQSPSSLSASVGDRVTITCSASQDISNYLNWYQQKPGKAPKVLIYFTSSLHSGVPSRFSGSGSGTDFTLTISSLQPEDFATYYCQQYSTVPWTFGQGTKVEIKR , respond with its kon.
OUT: 870000

More entries:
IN: Given Fab Y0101 variant, light chain L54K (Fab, V domains shown, Fab of Y0101 with one light chain substitution) VH: EVQLVESGGGLVQPGGSLRLSCAASGYTFTNYGMNWVRQAPGKGLEWVGWINTYTGEPTYAADFKRRFTFSLDTSKSTAYLQMNSLRAEDTAVYYCAKYPHYYGSSHWYFDVWGQGTLVTVSS VL: DIQLTQSPSSLSASVGDRVTITCSASQDISNYLNWYQQKPGKAPKVLIYFTSSKHSGVPSRFSGSGSGTDFTLTISSLQPEDFATYYCQQYSTVPWTFGQGTKVEIKR , respond with its kon.
OUT: 440000
